Test system: P-IKKα levels in L363 cells
Experiment Description: Effect of compounds on P-IKKα levels in L363 (NIK translocated multiple myeloma) cells
Format: cell-based, human
Stated Conditions: 2 hr treatment, averaged values, read-out: Inhibition of pIKKα_L-363 (IC50 (nM))
Observation Type: IC50 (nM)

Study these solved cases before continuing.
{"Compound": "CC1CCn2ncc(Nc3nccc(-c4cc(C#N)c5c(c4)[C@@](C)(CO)CN5)n3)c2O1 (single isomer, unassigned)", "Readout Value": 4}
{"Compound": "CC1CC(C)n2ncc(Nc3nccc(-c4cc(C#N)c5c(c4)C(C)(CO)CN5)n3)c2O1 (racemic) [Compound 21b]", "Readout Value": 5}
{"Compound": "Cc1c(Nc2nccc(-c3cc(C#N)c4c(c3)C(C)(CO)CN4)n2)ccc2c1CC(=O)N2 (stereo not shown)", "Readout Value": 36}
{"Compound": "CC1CC(C)n2ncc(Nc3nccc(-c4cc(C#N)c5c(c4)C(C)(CO)CN5)n3)c2O1 (racemic) [Compound 20b]", "Readout Value": 2}

(A) CC1CCCn2ncc(Nc3nccc(-c4cc(C#N)c5c(c4)[C@@](C)(CO)CN5)n3)c2O1 (single isomer, unassigned) [Compound 29b]
(B) CC(C)C1CCn2ncc(Nc3nccc(-c4cc(C#N)c5c(c4)[C@@](C)(CO)CN5)n3)c2O1 (single isomer, unassigned) [Compound 23b]
(C) CC1CCCn2ncc(Nc3nccc(-c4cc(C#N)c5c(c4)[C@@](C)(CO)CN5)n3)c2O1 (single isomer, unassigned) [Compound 30b]
q: // sort entries: IC50, high to low The reply should contain the labels ordered as requested.
a: C, A, B
(C: 13 nM, A: 6 nM, B: 2 nM)

====

Target: NIK/MAP3K14 (Homo sapiens (Human))
Sequence (Q99558 whole entry): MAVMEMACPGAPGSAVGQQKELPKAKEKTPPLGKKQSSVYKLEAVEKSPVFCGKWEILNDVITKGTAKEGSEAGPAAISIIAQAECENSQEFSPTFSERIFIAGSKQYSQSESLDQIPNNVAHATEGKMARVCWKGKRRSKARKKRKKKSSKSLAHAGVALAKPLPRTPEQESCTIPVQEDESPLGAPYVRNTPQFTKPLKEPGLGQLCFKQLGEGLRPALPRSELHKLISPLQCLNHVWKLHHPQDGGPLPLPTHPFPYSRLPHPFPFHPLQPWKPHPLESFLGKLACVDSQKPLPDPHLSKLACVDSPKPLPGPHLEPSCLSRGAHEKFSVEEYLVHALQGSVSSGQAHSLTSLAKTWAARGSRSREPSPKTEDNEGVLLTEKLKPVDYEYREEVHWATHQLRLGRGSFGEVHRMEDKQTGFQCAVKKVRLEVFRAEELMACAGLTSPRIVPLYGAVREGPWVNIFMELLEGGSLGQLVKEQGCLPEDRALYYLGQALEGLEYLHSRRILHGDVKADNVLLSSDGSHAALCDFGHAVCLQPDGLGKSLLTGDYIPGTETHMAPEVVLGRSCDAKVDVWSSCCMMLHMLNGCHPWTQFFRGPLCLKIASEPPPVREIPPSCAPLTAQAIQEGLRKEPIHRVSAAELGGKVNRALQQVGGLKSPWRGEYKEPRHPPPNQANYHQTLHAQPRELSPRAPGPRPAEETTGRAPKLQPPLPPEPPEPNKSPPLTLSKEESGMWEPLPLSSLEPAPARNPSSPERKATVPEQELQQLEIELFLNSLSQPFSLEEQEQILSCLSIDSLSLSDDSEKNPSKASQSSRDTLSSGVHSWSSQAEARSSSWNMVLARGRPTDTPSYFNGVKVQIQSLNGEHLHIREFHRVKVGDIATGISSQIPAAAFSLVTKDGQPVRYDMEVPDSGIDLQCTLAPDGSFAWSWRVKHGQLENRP
Experiment Description: Inhibition of auto-phosphorylation of recombinant human NF-kappaB-inducing kinase (NIK/MAP3K14) activity (AlphaScreen)
Assay type: biochemical
Stated Conditions: averaged values over all measurements on all batches, 25 microM ATP
Observation Type: IC50 (nM)

Worked cases, answers included:
{"Molecule": "CC1(C)CCOc2c(Nc3nccc(-c4cc(C#N)c5c(c4)[C@@](C)(CO)CN5)n3)cnn21 [Compound 24b]", "IC50 (nM)": 4.9}
{"Molecule": "Cc1c(Nc2nccc(-c3cc(C#N)c4c(c3)C(C)(CO)CN4)n2)ccc2c1CC(=O)N2 (stereo not shown) [Compound 42]", "IC50 (nM)": 8.9}

(I) COCCn1nc2c(c1Nc1nccc(-c3cc(C#N)c4c(c3)[C@@](C)(CO)CN4)n1)CCC2 [Compound 11b]
(II) COCCn1ccc2cc(Nc3nccc(-c4cc(C#N)c5c(c4)[C@@](C)(CO)CN5)n3)c(OC)nc21 [Compound 14c]
q: Determine, for I and II , which has the greater value of IC50. The response must carry the label of the picked entry.
a: I
(I: 39.8 nM, II: 5.6 nM)

====

Target: NIK/MAP3K14 (Homo sapiens (Human))
Experiment Description: Inhibition of auto-phosphorylation of recombinant human NF-kappaB-inducing kinase (NIK/MAP3K14) activity (AlphaScreen)
Format: biochemical
Stated Conditions: averaged values over all measurements on all batches, 25 microM ATP
Observation Type: IC50 (nM)

(A) CN(C)C1COc2c(cc(Cl)cc2Nc2nccc(-c3cc(C#N)c4c(c3)[C@@](C)(CO)CN4)n2)C1 (stereo partly shown) [Compound 17]
(B) CC1(C)CCn2ncc(Nc3nccc(-c4cc(C#N)c5c(c4)[C@@](C)(CO)CN5)n3)c2O1 [Compound 25b]
(C) CC1(CO)CNc2c(C#N)cc(-c3ccnc(Nc4ccc5c(c4)CC(CO)OC5)n3)cc21 (single isomer, unassigned) [Compound 5]
(D) CN(C)CC(=O)N1CCc2c(Nc3nccc(-c4cc(C#N)c5c(c4)[C@@](C)(CO)CN5)n3)cc(Cl)cc21
q: Arrange the 4 compounds from largest to smallest IC50. Please list the labels in the order you were asked to rank them.
a: B, A, C, D
(B: 8.1 nM, A: 3.3 nM, C: 1.9 nM, D: 1.3 nM)
